Cited source: ChEMBL document CHEMBL4831559

Exercise: for every item that follows, state its recorded AUC at 336 h.
assay: AUC in nude mouse xenografted with KIF5B-RET BaF3 cells xenografted at 10 mg/kg, po qd for 14 days; assay type: ADME, organism-based; design: time 14 day, dose 10 mg/kg; settings: in vivo
Express the reported value numerically, then name its unit.

Query :: Return the recorded AUC at 336 h value; entry: `COC(=O)NC12CCC(n3cc(-c4cc(N)c(Cl)cc4F)c4c(N)ncnc43)(CC1)CC2`
Result :: 136 µM·h

Query :: Note down AUC at 336 h recorded for `COC(=O)N[C@H]1CC[C@@H](n2cc(-c3ccc(Cl)c(N)c3)c3c(N)ncnc32)CC1`
Result :: 50 µM·h

----------
test: AUC in nude mouse xenografted with KIF5B-RET BaF3 cells xenografted at 3 mg/kg, po qd for 14 days; type: ADME, organism-based; parameters: time 14 day, dose 3 mg/kg; details: in vivo
measured metric: AUC at 336 h

Query :: Query AUC at 336 h for `COC(=O)NC12CCC(n3cc(-c4ccc(Cl)c(N)c4)c4c(N)ncnc43)(CC1)CC2`
Result :: 106 µM·h

----------
Exercise: state measured fraction unbound at 16 h, 5 µM for each of the compounds provided.
experiment: Plasma protein binding in mouse at 5 uM measured after 16 hrs by LC-MS/MS based rapid equilibrium dialysis analysis; format: ADME, cell-free; details: read-out: PPB (converted)
Format: numeric value only, no unit, no commentary.

Query :: Specify fraction unbound at 16 h, 5 µM for `COC(=O)NC12CCC(n3cc(-c4ccc(Cl)c(N)c4)c4c(N)ncnc43)(CC1)CC2` and stop.
Result :: 0.0042

Query :: Return reported fraction unbound at 16 h, 5 µM. Input compound: `COC(=O)N[C@H]1CC[C@@H](n2cc(-c3ccc(Cl)c(N)c3)c3c(N)ncnc32)CC1`
Result :: 0.031

Query :: Determine its reported fraction unbound at 16 h, 5 µM: `CC(=O)N1CCN([C@H]2C[C@@H](n3cc(-c4ccc(Cl)c(N)c4)c4c(N)ncnc43)C2)CC1`
Result :: 0.356

Query :: Quote fraction unbound at 16 h, 5 µM reported for `COC(=O)NC12CCC(n3cc(-c4cc(N)c(Cl)cc4F)c4c(N)ncnc43)(CC1)CC2` please.
Result :: 0.0065

----------
test: AUC in nude mouse xenografted with KIF5B-RET BaF3 cells xenografted at 60 mg/kg, po qd for 14 days; assay type: ADME, organism-based; parameters: time 14 day, dose 60 mg/kg; details: in vivo
measured metric: AUC at 336 h (µM·h)
Supply the numeric figure in µM·h, leaving out any unit text.

Query :: For `CC(=O)N1CCN([C@H]2C[C@@H](n3cc(-c4ccc(Cl)c(N)c4)c4c(N)ncnc43)C2)CC1` , write its AUC at 336 h.
Result :: 115

----------
Field: bioavailability. Provide a value for each of the molecules that follow.
assay: Oral bioavailability in BALB/c mouse at 10 mg/kg measured by LC-MS/MS analysis; format: ADME, organism-based; conditions: in vivo
The reply should be a number in %, with the unit left off.

Query :: Look up bioavailability of `COC(=O)NC12CCC(n3cc(-c4cc(N)c(Cl)cc4F)c4c(N)ncnc43)(CC1)CC2` and report it.
Result :: 78

Query :: Kindly indicate its recorded bioavailability. Item: `COC(=O)NC12CCC(n3cc(-c4ccc(Cl)c(N)c4)c4c(N)ncnc43)(CC1)CC2`
Result :: 58

Query :: Entry `COC(=O)N[C@H]1CC[C@@H](n2cc(-c3ccc(Cl)c(N)c3)c3c(N)ncnc32)CC1` needs its bioavailability filled in; supply it.
Result :: 60

Query :: Please look at this molecule and report its bioavailability: `CC(=O)N1CCN([C@H]2C[C@@H](n3cc(-c4ccc(Cl)c(N)c4)c4c(N)ncnc43)C2)CC1`
Result :: 48
